- System: passive cutaneous anaphylaxis (PCA)
- experiment summary: Anti-passive cutaneous anaphylaxis activity (PCA) in rats (Test Example 9)
- Type: in vivo
- cond: Rattus norvegicus, po; 50 mg/kg, 10 animals; read-out: Inhibition, Anti-serum Dilution: × 24
measured quantity: inhibition in vivo at 50 mg/kg (%)
Quick note: give the figure in %, leave out the unit.

**Query** Look at this compound and give its reported inhibition in vivo at 50 mg/kg. CC(C)(C)OC(=O)c1ccccc1NC(=O)C(=Cc1ccccc1)C(=O)Nc1ccccc1C(=O)OC(C)(C)C
**Result** 42.6

**Query** Look up inhibition in vivo at 50 mg/kg: COC(=O)c1ccccc1NC(=O)C(=Cc1ccccc1)C(=O)Nc1ccccc1C(=O)OC
**Result** 37.5

**Query** Returns the measured inhibition in vivo at 50 mg/kg for the input compound. Input: CC(C)(C)C(=O)OCOC(=O)c1ccccc1NC(=O)C(=Cc1ccccc1)C(=O)Nc1ccccc1C(=O)OCOC(=O)C(C)(C)C
**Result** 50.1

**Query** What value of inhibition in vivo at 50 mg/kg has been reported for the following compound? CCOC(=O)OC(C)OC(=O)c1ccccc1NC(=O)C(=Cc1ccccc1)C(=O)Nc1ccccc1C(=O)OC(C)OC(=O)OCC (stereo not shown)
**Result** 57.6

###

- assayed target: hyaluronidase (Bos taurus)
- experiment summary: Anti-hyaluronidase activity (modified Morgan-Elson method)
- Format: biochemical
- cond: hyaluronidase 340NF unit/ml; activating agent Compound 48/80 or CaCl2; read-out: IC50
measured quantity: IC50 (µM)
Answer in µM, number only, no unit symbol.

**Query** Item under review: O=C(Nc1ccc(C(=O)O)cc1)C(=Cc1ccccc1)C(=O)Nc1ccc(C(=O)O)cc1 [Compound 13] . Reported IC50?
**Result** 55

**Query** Please give the measured IC50 for this compound: COc1cc(C=C(C(=O)Nc2ccccc2C(=O)O)C(=O)Nc2ccccc2C(=O)O)ccc1O [Compound 24]
**Result** 20

**Query** IC50 lookup needed for O=C(Nc1ccccc1C(=O)O)C(=Cc1ccc([N+](=O)[O-])cc1)C(=O)Nc1ccccc1C(=O)O [Compound 36] , thanks.
**Result** 25

**Query** Look at this compound and give its reported IC50. COc1ccc(C=C(C(=O)Nc2ccccc2C(=O)O)C(=O)Nc2ccccc2C(=O)O)cc1OC [Compound 20]
**Result** 40

**Query** Consider the compound shown here: O=C(Nc1ccccc1C(=O)O)C(=Cc1ccsc1)C(=O)Nc1ccccc1C(=O)O [Compound 41] What is its recorded IC50?
**Result** 60

**Query** Which value of IC50 has been reported for O=C(CC(=O)Nc1ccccc1C(=O)O)Nc1ccccc1C(=O)O [Compound 01] in the records?
**Result** 77

**Query** What value of IC50 has been reported for the following compound? N#Cc1ccc(C=C(C(=O)Nc2ccccc2C(=O)O)C(=O)Nc2ccccc2C(=O)O)cc1 [Compound 37]
**Result** 17

**Query** Tell me the measured IC50 of Cn1cccc1C=C(C(=O)Nc1ccccc1C(=O)O)C(=O)Nc1ccccc1C(=O)O [Compound 43] , please.
**Result** 40

**Query** What IC50 value was documented for this compound, Cn1cc(C=C(C(=O)Nc2ccccc2C(=O)O)C(=O)Nc2ccccc2C(=O)O)c2ccccc21 [Compound 45] ?
**Result** 10

**Query** Quick one: IC50 of O=C(Nc1ccccc1C(=O)O)C(=Cc1cccc(Cl)c1)C(=O)Nc1ccccc1C(=O)O [Compound 31] ?
**Result** 25

**Query** Given the compound COc1cc(C=C(C(=O)Nc2ccccc2C(=O)O)C(=O)Nc2ccccc2C(=O)O)cc(OC)c1OC [Compound 23] , what is its reported IC50?
**Result** 30

**Query** Name the reported IC50 value associated with the compound O=C(Nc1ccccc1C(=O)O)C(=Cc1cccnc1)C(=O)Nc1ccccc1C(=O)O [Compound 44]
**Result** 73

**Query** Sample O=C(Nc1ccccc1C(=O)O)C(=Cc1cccs1)C(=O)Nc1ccccc1C(=O)O [Compound 40] — what was its IC50?
**Result** 35

**Query** IC50 for COc1ccc(C=C(C(=O)Nc2cc(Cl)ccc2C(=O)O)C(=O)Nc2cc(Cl)ccc2C(=O)O)cc1OC [Compound 21] ?
**Result** 15

**Query** Value lookup for IC50; key = O=C(Nc1ccccc1C(=O)O)C(=Cc1ccccc1)C(=O)Nc1ccccc1C(=O)O
**Result** 35

**Query** Could you tell me which IC50 is on file for O=C(Nc1cc(Cl)ccc1C(=O)O)C(=Cc1ccccc1)C(=O)Nc1cc(Cl)ccc1C(=O)O [Compound 15] ?
**Result** 55

###

- System: experimental ulcer model (Shay)
- experiment summary: Anti-ulcer activity in experimental ulcer model (Shay)
- Format: in vivo, Wistar strain male rats
- cond: id 100 mg/kg
I'd appreciate it if you could supply Inhibition % secretion amount of gastric juice values for the items below.
Numbers only; they are read as %.

**Query** Which Inhibition % secretion amount of gastric juice value belongs to O=C(Nc1ccccc1C(=O)O)C(=Cc1ccccc1)C(=O)Nc1ccccc1C(=O)O ?
**Result** 0

**Query** Fill in the blank: the reported Inhibition % secretion amount of gastric juice of COc1ccc(C=C(C(=O)Nc2cc([N+](=O)[O-])ccc2C(=O)O)C(=O)Nc2cc([N+](=O)[O-])ccc2C(=O)O)cc1OC is ____.
**Result** 11.1

**Query** Which measured Inhibition % secretion amount of gastric juice value corresponds to CC(=O)Nc1ccc(C=C(C(=O)Nc2ccccc2C(=O)O)C(=O)Nc2ccccc2C(=O)O)cc1 ?
**Result** 0

**Query** GET /values?readout=Inhibition % secretion amount of gastric juice&item= O=C(Nc1ccccc1C(=O)O)C(=Cc1ccc2c(c1)OCO2)C(=O)Nc1ccccc1C(=O)O
**Result** 25.5

**Query** Name the recorded Inhibition % secretion amount of gastric juice for COc1cc(C=C(C(=O)Nc2ccccc2C(=O)O)C(=O)Nc2ccccc2C(=O)O)cc(OC)c1OC .
**Result** 8.5

**Query** For the molecule shown here, COc1ccc(C=C(C(=O)Nc2ccccc2C(=O)O)C(=O)Nc2ccccc2C(=O)O)cc1OC , give the reported Inhibition % secretion amount of gastric juice.
**Result** 28.1

###

- assayed target: hyaluronidase (Bos taurus, UniProt Q2YDK3)
- experiment summary: Anti-hyaluronidase activity (modified Morgan-Elson method)
- Format: biochemical
- cond: hyaluronidase 340NF unit/ml; activating agent Compound 48/80 or CaCl2; read-out: IC50
measured quantity: IC50 (µM)
Kindly provide the numeric value in µM only, without the unit symbol.

**Query** Which IC50 value belongs to O=C(Nc1ccccc1C(=O)O)C(=Cc1cccc2ccccc12)C(=O)Nc1ccccc1C(=O)O [Compound 38] ?
**Result** 23

**Query** Requested field: IC50. Item: O=C(Nc1ccccc1C(=O)O)C(=Cc1ccccc1)C(=O)Nc1cc(Cl)ccc1C(=O)O [Compound 46]
**Result** 30

**Query** // query IC50 value for entry Cc1ccc(NC(=O)C(=Cc2ccccc2)C(=O)Nc2ccc(C)cc2C(=O)O)c(C(=O)O)c1 [Compound 17]
**Result** 142

**Query** Please look up its IC50: CN(C)c1ccc(C=C(C(=O)Nc2ccccc2C(=O)O)C(=O)Nc2ccccc2C(=O)O)cc1 [Compound 28]
**Result** 110

**Query** Consider the molecule shown here: O=C(Nc1ccccc1C(=O)O)C(=Cc1ccc(Cl)cc1)C(=O)Nc1ccccc1C(=O)O [Compound 30] What is its recorded IC50?
**Result** 10

**Query** Reported IC50, molecule O=C(CC(=O)Nc1cc(Cl)ccc1C(=O)O)Nc1ccccc1C(=O)O [Compound 09] : ____
**Result** 134

**Query** I would be grateful if you could share the reported IC50 for O=C(Nc1ccccc1C(=O)O)C(=Cc1ccco1)C(=O)Nc1ccccc1C(=O)O [Compound 39] .
**Result** 40

**Query** # IC50 lookup, item CC(C)c1ccc(C=C(C(=O)Nc2ccccc2C(=O)O)C(=O)Nc2ccccc2C(=O)O)cc1 [Compound 27]
**Result** 30

###

- assayed target: hyaluronidase (Bos taurus, UniProt Q2YDK3)
- Sequence (Q2YDK3 36-553): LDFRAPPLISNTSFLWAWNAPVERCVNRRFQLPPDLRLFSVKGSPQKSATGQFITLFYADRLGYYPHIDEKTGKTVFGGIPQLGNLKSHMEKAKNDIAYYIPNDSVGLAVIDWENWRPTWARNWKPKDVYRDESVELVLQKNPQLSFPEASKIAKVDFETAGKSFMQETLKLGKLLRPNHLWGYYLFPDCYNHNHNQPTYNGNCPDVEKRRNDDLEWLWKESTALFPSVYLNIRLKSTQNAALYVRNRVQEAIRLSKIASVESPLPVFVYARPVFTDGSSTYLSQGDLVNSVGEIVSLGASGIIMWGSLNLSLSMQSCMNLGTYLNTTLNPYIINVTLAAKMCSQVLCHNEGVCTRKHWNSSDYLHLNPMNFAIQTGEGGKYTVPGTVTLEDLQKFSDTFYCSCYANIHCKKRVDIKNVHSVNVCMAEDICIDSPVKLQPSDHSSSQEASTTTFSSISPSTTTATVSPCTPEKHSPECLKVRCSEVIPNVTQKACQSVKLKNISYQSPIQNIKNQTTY
- experiment summary: Anti-hyaluronidase activity (modified Morgan-Elson method)
- Type: biochemical
- cond: IC50 (mM), hyaluronidase 340NF unit/ml; activating agent Compound 48/80 or CaCl2
Give measured IC50 for each item. Keep answers brief.
The figure you give is taken to be in mM; do not add the unit.

**Query** What value of IC50 has been recorded for this entry: O=C(Nc1cc([N+](=O)[O-])ccc1C(=O)O)C(=Cc1ccccc1)C(=O)Nc1cc([N+](=O)[O-])ccc1C(=O)O
**Result** 0.01

**Query** # query: IC50 of entry COc1ccc(C=C(C(=O)Nc2cc([N+](=O)[O-])ccc2C(=O)O)C(=O)Nc2cc([N+](=O)[O-])ccc2C(=O)O)cc1OC
**Result** 0.008

**Query** What IC50 value was documented for this molecule, O=C(CC(=O)Nc1cc([N+](=O)[O-])ccc1C(=O)O)Nc1cc([N+](=O)[O-])ccc1C(=O)O ?
**Result** 0.013
